# system-tested: Proto-oncogene tyrosine-protein kinase receptor Ret (Homo sapiens, UniProt P07949, V804M)
# Sequence (P07949 29-1114 V804M limits assumed): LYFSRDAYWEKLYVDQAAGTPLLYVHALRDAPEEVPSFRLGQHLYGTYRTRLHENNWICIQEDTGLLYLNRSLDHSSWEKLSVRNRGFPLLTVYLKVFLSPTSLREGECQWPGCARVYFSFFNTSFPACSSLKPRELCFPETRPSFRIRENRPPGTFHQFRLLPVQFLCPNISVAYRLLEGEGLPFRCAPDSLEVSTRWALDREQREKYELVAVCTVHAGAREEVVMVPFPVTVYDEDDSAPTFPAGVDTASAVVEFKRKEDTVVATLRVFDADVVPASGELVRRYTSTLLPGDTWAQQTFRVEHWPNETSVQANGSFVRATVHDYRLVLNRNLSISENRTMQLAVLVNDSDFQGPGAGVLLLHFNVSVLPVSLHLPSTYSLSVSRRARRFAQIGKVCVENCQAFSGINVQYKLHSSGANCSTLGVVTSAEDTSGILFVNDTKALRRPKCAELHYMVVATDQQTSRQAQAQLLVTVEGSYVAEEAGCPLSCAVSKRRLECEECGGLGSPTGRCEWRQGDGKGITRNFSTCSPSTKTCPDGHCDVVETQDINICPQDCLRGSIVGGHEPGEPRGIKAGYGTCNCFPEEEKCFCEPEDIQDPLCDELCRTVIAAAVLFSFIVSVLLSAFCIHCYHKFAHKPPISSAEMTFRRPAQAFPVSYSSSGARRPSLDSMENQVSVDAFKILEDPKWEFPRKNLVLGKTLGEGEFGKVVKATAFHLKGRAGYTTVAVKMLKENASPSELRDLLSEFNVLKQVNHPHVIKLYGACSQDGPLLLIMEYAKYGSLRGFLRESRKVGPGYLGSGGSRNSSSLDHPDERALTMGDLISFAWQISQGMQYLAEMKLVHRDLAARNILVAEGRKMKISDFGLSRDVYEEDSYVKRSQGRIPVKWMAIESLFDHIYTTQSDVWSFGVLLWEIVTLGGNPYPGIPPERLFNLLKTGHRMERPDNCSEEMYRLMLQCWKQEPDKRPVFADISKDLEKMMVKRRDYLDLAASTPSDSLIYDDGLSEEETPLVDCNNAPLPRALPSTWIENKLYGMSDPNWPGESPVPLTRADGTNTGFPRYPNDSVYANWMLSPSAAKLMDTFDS
# method-notes: Inhibition of RET (unknown origin) V804M mutant
observation-type: pIC50
Answers are plain numbers, as −log10 of the molar value.

Please fill in: pIC50 reported for `COc1cncc(-c2cn[nH]c2/C=C/c2ccc(NC(=O)Nc3cc(C(C)(C)C(F)(F)F)on3)c(Cl)c2)c1` = 6.79

----------
# Tested on: BaF3
# method-notes: Antiproliferative activity against mouse BaF3 cells harbouring CCDC6-RET G810C mutant assessed as inhibition of cell proliferation incubated for 72 hrs by CCK-8 assay
# Assay type: functional, cell-based
# study-conditions: BaF3, 72 h
Checkbox rule: IC50 lower than 400 nM = 1 (yes); IC50 not lower than 400 nM = 0 (no).

>  <compound-structure-string>
COc1cncc(-c2cn[nH]c2/C=C/c2ccc(NC(=O)Nc3cc(C(C)(C)C(F)(F)F)on3)cc2F)c1

>  <class-name>
1 (yes)

$$$$
>  <compound-structure-string>
CC(C)(c1cc(NC(=O)Nc2ccc(/C=C/c3[nH]ncc3-c3cncc(C#N)c3)cc2)no1)C(F)(F)F

>  <class-name>
1 (yes)

$$$$
>  <compound-structure-string>
COc1cncc(-c2c[nH]nc2/C=C\c2ccc(NC(=O)Nc3cc(C(C)(C)C(F)(F)F)on3)cc2)c1

>  <class-name>
0 (no)

$$$$
>  <compound-structure-string>
COc1cncc(-c2cn[nH]c2/C=C/c2ccc(NC(=O)Nc3cc(C(C)(C)C(F)(F)F)on3)c(C)c2)c1

>  <class-name>
1 (yes)

$$$$
>  <compound-structure-string>
COc1cncc(-c2cnn(C)c2/C=C/c2ccc(NC(=O)Nc3cc(C(C)(C)C(F)(F)F)on3)cc2)c1

>  <class-name>
0 (no)

$$$$
>  <compound-structure-string>
COc1cncc(-c2cn(C)nc2/C=C/c2ccc(NC(=O)Nc3cc(C(C)(C)C(F)(F)F)on3)cc2)c1

>  <class-name>
0 (no)

$$$$

Continue with the next molecule.
Does this molecule meet the criterion IC50 < 400 nM? `COc1cncc(-c2cn[nH]c2/C=C/c2ccc(NC(=O)Nc3cc(C(C)(C)C(F)(F)F)on3)c(F)c2)c1` 1 (yes)

----------
# System: BaF3
# method-notes: Antiproliferative activity against mouse BaF3 cells harbouring CCDC6-RET
observation-type: IC50 (nM)
Answers are plain numbers, in nM.

Query CO[C@]1(C(=O)N[C@@H](C)c2ccc(-n3cc(F)cn3)nc2)CC[C@H](c2nc(C)cc(Nc3cc(C)[nH]n3)n2)CC1 [PRALSETINIB] yields IC50 of 5

----------
# Tested on: BaF3
# method-notes: Antiproliferative activity against mouse BaF3 cells harbouring KIF5B-RET G810C mutant assessed as inhibition of cell proliferation
# Assay type: functional, cell-based
observation-type: pIC50
One number for each entry, as −log10 of the molar value.

pIC50 measured on `C[C@H]1CNC(=O)c2cnn3cc4c(nc23)N(Cc2cc(F)cnc2O1)[C@@H]1CCC[C@@H]1O4` = 9.00

----------
# Test system: BaF3
# method-notes: Antiproliferative activity against mouse BaF3 cells harbouring CCDC6-RET assessed as inhibition of cell proliferation incubated for 72 hrs by CCK-8 assay
# Format: functional, cell-based
# study-conditions: BaF3, 72 h
Would you mind telling me the reported pIC50 of each entry?
Answers are plain numbers, as −log10 of the molar value.

A selection of reference data follows.
>  <compound-structure-string>
CNC(=O)c1cncc(-c2cn[nH]c2/C=C/c2ccc(NC(=O)Nc3cc(C(C)(C)C(F)(F)F)on3)cc2)c1

>  <measured>
6.65

$$$$
>  <compound-structure-string>
COc1cncc(-c2cn(C)nc2/C=C/c2ccc(NC(=O)Nc3cc(C(C)(C)C(F)(F)F)on3)cc2)c1

>  <measured>
6.90

$$$$
>  <compound-structure-string>
COc1cc(-c2cn[nH]c2/C=C/c2ccc(NC(=O)Nc3cc(C(C)(C)C(F)(F)F)on3)cc2)ccn1

>  <measured>
7.07

$$$$
>  <compound-structure-string>
COC(=O)c1cncc(-c2cn[nH]c2/C=C/c2ccc(NC(=O)Nc3cc(C(C)(C)C(F)(F)F)on3)cc2)c1

>  <measured>
7.05

$$$$
>  <compound-structure-string>
COc1cncc(-c2cn[nH]c2/C=C/c2ccc(NC(=O)Nc3cc(C(C)(C)C(F)(F)F)on3)c(C)c2)c1

>  <measured>
7.88

$$$$
>  <compound-structure-string>
COc1cncc(-c2c[nH]nc2/C=C\c2ccc(NC(=O)Nc3cc(C(C)(C)C(F)(F)F)on3)cc2)c1

>  <measured>
6.39

$$$$

Provide reported pIC50 for each item, in the same order as listed.
1. COc1cncc(-c2cn[nH]c2/C=C/c2ccc(NC(=O)Nc3cc(C(C)(C)C(F)(F)F)on3)cc2Cl)c1
2. COc1cncc(-c2cn[nH]c2/C=C/c2ccc(NC(=O)Nc3cc(C(C)(C)C(F)(F)F)on3)cc2OC)c1

6.97
6.88

----------
# system-tested: Proto-oncogene tyrosine-protein kinase receptor Ret (Homo sapiens, UniProt P07949, V804M)
# method-notes: Inhibition of RET V804M mutant (unknown origin)
observation-type: pIC50
Numbers only, as −log10 of the molar value.

Recorded pIC50 for `CN1CCN(Cc2ccc(NC(=O)c3cncc(C#Cc4cnc(N)c5ncccc45)c3)cc2C(F)(F)F)CC1` on Proto-oncogene tyrosine-protein kinase receptor Ret (Homo sapiens, UniProt P07949, V804M) was 7.54

----------
# Test system: BaF3
# method-notes: Antiproliferative activity against mouse BaF3 cells harbouring KIF5B-RET assessed as inhibition of cell proliferation
# Format: functional, cell-based
observation-type: IC50 (nM)
Answers are plain numbers, in nM.

# compound `C[C@H]1CNC(=O)c2cnn3cc4c(nc23)N(Cc2cc(F)cnc2O1)[C@@H]1CCC[C@@H]1O4` ; its IC50 = 1

----------
# Test system: BaF3
# method-notes: Antiproliferative activity against mouse BaF3 cells harbouring KIF5B-RET G810R mutant assessed as inhibition of cell proliferation
# Assay type: functional, cell-based
observation-type: IC50 (nM)
Answers are plain numbers, in nM.

Entry `C[C@H]1CNC(=O)c2cnn3cc4c(nc23)N(Cc2cc(F)cnc2O1)[C@@H]1CCC[C@@H]1O4` — recorded IC50 = 1

----------
# System: BaF3
# method-notes: Antiproliferative activity against mouse BaF3 cells harbouring CCDC6-RET assessed as inhibition of cell proliferation incubated for 72 hrs by CCK-8 assay
# Type: functional, cell-based
# study-conditions: BaF3, 72 h
observation-type: IC50
Include the unit right after the number.

Some compounds with known IC50 results, for comparison:
>  <compound-structure-string>
COc1cncc(-c2cn[nH]c2/C=C/c2ccc(NC(=O)Nc3cc(C(C)(C)C(F)(F)F)on3)c(Cl)c2)c1

>  <system-tested>
BaF3

>  <measured>
13 nM

$$$$
>  <compound-structure-string>
CC(C)(c1cc(NC(=O)Nc2ccc(/C=C/c3[nH]ncc3-c3cncc(F)c3)cc2)no1)C(F)(F)F

>  <system-tested>
BaF3

>  <measured>
147 nM

$$$$
>  <compound-structure-string>
COc1ccc(-c2c[nH]nc2-c2ccc(NC(=O)Nc3cc(C(C)(C)C(F)(F)F)on3)cc2)cn1

>  <system-tested>
BaF3

>  <measured>
435 nM

$$$$

Count: 5. Required value per item: IC50.
1. COc1cncc(-c2cn[nH]c2/C=C/c2cccc(NC(=O)Nc3cc(C(C)(C)C(F)(F)F)on3)c2)c1
2. COc1ccc(-c2cn[nH]c2/C=C/c2ccc(NC(=O)Nc3cc(C(C)(C)C(F)(F)F)on3)cc2)cn1
3. CC(C)(c1cc(NC(=O)Nc2ccc(/C=C/c3[nH]ncc3-c3cncc(C#N)c3)cc2)no1)C(F)(F)F
4. COc1cncc(-c2cn[nH]c2/C=C/c2ccc(NC(=O)Nc3cc(C(C)(C)C(F)(F)F)on3)cc2C)c1
5. COc1cncc(-c2cn[nH]c2/C=C/c2ccc(NC(=O)Nc3cc(C(C)(C)C(F)(F)F)on3)cc2)c1

1060 nM
98.5 nM
175 nM
271 nM
46 nM

----------
# system-tested: Platelet-derived growth factor receptor alpha (Homo sapiens, UniProt P16234)
# Sequence (P16234 whole entry): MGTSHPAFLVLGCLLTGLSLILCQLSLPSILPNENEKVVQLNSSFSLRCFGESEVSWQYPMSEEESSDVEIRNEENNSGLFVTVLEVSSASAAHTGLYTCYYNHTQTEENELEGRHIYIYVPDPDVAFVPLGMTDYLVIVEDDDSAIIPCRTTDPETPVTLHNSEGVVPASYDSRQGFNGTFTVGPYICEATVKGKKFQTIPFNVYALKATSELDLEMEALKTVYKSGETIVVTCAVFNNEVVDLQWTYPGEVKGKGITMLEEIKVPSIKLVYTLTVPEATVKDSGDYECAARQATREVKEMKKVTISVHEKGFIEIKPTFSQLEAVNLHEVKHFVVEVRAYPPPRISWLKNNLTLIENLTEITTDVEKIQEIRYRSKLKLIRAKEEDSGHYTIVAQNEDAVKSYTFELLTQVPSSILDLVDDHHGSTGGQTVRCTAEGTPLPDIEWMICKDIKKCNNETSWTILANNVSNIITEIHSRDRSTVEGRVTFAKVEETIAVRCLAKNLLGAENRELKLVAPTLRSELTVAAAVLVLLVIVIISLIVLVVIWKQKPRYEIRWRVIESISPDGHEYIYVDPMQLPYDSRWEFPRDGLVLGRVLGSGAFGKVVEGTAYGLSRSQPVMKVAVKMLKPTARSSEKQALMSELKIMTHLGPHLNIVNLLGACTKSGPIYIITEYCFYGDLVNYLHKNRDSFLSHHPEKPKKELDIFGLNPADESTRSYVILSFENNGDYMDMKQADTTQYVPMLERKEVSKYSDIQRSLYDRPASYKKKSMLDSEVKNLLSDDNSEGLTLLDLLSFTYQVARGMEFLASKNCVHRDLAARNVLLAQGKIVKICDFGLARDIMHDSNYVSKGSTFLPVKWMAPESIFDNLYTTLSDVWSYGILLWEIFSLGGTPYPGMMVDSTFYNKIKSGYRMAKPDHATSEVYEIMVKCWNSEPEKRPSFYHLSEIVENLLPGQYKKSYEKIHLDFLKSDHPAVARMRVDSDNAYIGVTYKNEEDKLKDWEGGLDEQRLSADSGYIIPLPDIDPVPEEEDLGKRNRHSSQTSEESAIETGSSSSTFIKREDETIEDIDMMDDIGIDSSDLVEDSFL
observation-type: IC50 (nM)
Numbers only, in nM.

Entry `COc1cncc(-c2cn[nH]c2/C=C/c2ccc(NC(=O)Nc3cc(C(C)(C)C(F)(F)F)on3)c(Cl)c2)c1` ; IC50 = 17.3

----------
# system-tested: Proto-oncogene tyrosine-protein kinase receptor Ret (Homo sapiens, UniProt P07949, G810R)
# Sequence (P07949 29-1114 G810R limits assumed): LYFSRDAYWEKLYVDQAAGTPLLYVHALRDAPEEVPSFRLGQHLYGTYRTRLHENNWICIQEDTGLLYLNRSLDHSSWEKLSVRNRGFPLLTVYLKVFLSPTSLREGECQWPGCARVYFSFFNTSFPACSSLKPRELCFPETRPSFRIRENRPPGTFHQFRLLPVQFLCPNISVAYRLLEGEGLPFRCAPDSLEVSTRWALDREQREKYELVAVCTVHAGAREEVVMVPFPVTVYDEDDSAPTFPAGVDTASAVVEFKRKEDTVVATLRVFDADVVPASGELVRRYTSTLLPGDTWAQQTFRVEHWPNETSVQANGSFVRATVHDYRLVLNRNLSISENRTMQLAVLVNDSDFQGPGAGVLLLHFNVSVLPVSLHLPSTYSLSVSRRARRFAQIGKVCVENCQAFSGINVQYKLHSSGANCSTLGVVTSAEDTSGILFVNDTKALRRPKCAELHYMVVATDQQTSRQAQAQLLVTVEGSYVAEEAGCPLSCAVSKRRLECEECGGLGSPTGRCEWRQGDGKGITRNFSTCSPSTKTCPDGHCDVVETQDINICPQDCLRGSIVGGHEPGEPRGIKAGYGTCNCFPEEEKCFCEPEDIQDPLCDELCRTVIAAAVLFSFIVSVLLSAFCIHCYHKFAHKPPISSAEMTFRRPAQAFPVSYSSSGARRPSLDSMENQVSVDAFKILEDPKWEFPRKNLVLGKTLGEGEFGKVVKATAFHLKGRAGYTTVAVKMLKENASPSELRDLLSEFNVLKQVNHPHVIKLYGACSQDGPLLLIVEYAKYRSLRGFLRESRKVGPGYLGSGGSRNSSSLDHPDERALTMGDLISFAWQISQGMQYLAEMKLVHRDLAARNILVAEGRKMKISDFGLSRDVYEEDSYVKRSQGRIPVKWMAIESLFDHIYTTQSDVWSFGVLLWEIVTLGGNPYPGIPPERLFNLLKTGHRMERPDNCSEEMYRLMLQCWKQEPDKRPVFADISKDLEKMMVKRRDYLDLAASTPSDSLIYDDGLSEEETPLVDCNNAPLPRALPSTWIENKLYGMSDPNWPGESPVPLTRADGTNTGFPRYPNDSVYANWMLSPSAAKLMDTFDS
# method-notes: Inhibition of RET G810R mutant (unknown origin)
observation-type: pIC50
Give bare numbers, as −log10 of the molar value.

With Proto-oncogene tyrosine-protein kinase receptor Ret (Homo sapiens, UniProt P07949, G810R) as the test system, `CN1CCN(Cc2ccc(NC(=O)c3cncc(C#Cc4cnc(N)c5ncccc45)c3)cc2C(F)(F)F)CC1` showed pIC50 of 7.54
